- TARGET_OF_ASSAY: Lysosomal acid glucosylceramidase (Homo sapiens)
- ASSAY_PROTOCOL: Glucocerebrosidase-p2 (AID 348); further: potency means the concentration at half of the fitted maximal effect
- RUN_PARAMETERS: purified GBA, blue fluorogenic substrate, 40 min
Activity calls are given as the source filed them. No stated cut-off is given here; in the data, active means potency below about 10 µM; inactive means the rest.
Outcome field: choose from True for active, False for inactive

These recorded examples may help you get a feel for the data.
O=C(c1ccncc1)N1CCC2(CC1)CCN(c1ccccn1)CC2
False
CN(C)C(=O)c1ccc(-c2ccc3ncnc(N4CCNCC4)c3c2)cc1
False
O=c1c(-c2ccc(F)c(F)c2)nc2cncnc2n1Cc1ccc(F)cc1
False

Please state the recorded outcome for this compound: "CS(=O)(=O)Nc1cccc(-c2cncnc2Nc2ccccc2)c1" False

Give the logged outcome of this assay for the following compound: "CN(C)c1ncc2nc(-c3ccc(F)cc3)c(=O)n(CCc3ccccc3)c2n1" False

How did this test come out for "CN(C)c1ncc2ncc(=O)n(C)c2n1" ? False

Hi, do you know how "COc1ccc2[nH]cc(CCNc3ncnc4ccc(-c5ccccc5CN(C)C)cc34)c2c1" came out in this test? False

Name the outcome recorded for "CC(=O)N1CCC2(CCCN(C(=O)Nc3cccc(C#N)c3)C2)CC1" in the assay. False

Field: outcome | Entry: "COc1cccc(-c2nccc(NCc3ccccc3OC)n2)c1" False

So what was the verdict on "COc1ccccc1-c1nc(NCCNC(C)=O)c2ccccc2n1" in this test? False

* * *

- ASSAY_PROTOCOL: qHTS Assay for Identification of Small Molecule Agonists for Hypoxia Response Element Signaling Pathway (AID 914); further: potency means the concentration at half of the fitted maximal effect
- RUN_PARAMETERS: ME-180 (cervical carcinoma) HRE-bla reporter, beta-lactamase ratio, CoCl2, 17 h
Records with an inconclusive call do not appear. The source made the active and inactive calls. Calls follow the shape of the dose curve; as a rule, active = well fitted activation curve with a large enough effect in the signal ratio, with a control signal flat (not every such curve was filed as active); inconclusive = small, poorly fitted or top-dose-only effect, or effect the other way, or a change in a side signal; inactive = flat fitted curve, though single readings scatter; the % refers to the signal ratio.
REPORTED_METRIC: Potency

Guide cases for Potency, answers given:
CN(C)c1ncc2nc(-c3cccs3)c(=O)n(C3CC3)c2n1
3.98 µM (active)
CCNc1ncc2nc(-c3ccccc3)c(=O)n(Cc3cccc(OC)c3)c2n1
3.16 µM (active)
CN(C)c1ncc2nc(-c3cc(F)cc(F)c3)c(=O)n(Cc3ccc(F)cc3)c2n1
3.16 µM (active)
CN(C)c1ncc2nc(-c3ccc(Cl)cc3)c(=O)n(C3CC3)c2n1
2.51 µM (active)
CCNc1ncc2nc(-c3ccc(OC)cc3)c(=O)n(CCc3ccccc3)c2n1
0.501 µM (active)

// returns reported Potency for input "O=c1c(-c2cccs2)nc2cnc(Oc3cccc(Cl)c3)nc2n1C1CC1" 3.16 µM (active)

So what does the record say about Potency for "CN1CCN(c2ncc3nc(-c4ccccc4)c(=O)n(CCC#N)c3n2)CC1" ? 3.16 µM (active)

Fill blank: measured Potency of the molecule "CCNc1ncc2nc(-c3cc(F)cc(F)c3)c(=O)n(-c3ccccc3)c2n1" is ____. 2.51 µM (active)

Potency lookup needed for "CN(C)c1ncc2nc(-c3cc(F)cc(F)c3)c(=O)n(CCc3ccccc3)c2n1" , thanks. 2.51 µM (active)

Which value of Potency has been reported for "CCNc1ncc2nc(-c3cc(F)cc(F)c3)c(=O)n(Cc3cccs3)c2n1" in the records? 0.794 µM (active)

Returns the measured Potency for the input molecule. Input: "N#Cc1ccc(CN2CC3(CCN(C(=O)c4cnccn4)CC3)C2)cc1" 3.16 µM (active)

I have this molecule here, "CCNc1ncc2nc(-c3cccs3)c(=O)n(CCc3ccccc3)c2n1" , and I need its recorded Potency. 1 µM (active)

// returns reported Potency for input "COc1ccc(CNc2ncnc3ccc(-c4c(C)noc4C)cc23)c(OC)c1" 2 µM (active)

Entry "CN(C)c1ncc2nc(-c3ccc(Cl)cc3)c(=O)n(Cc3cccs3)c2n1" has what Potency? 0.398 µM (active)
